FYI, the data here is from the supplement of paper PMC7877785.

experiment: self-splicing fitness, log relative to wild type (ln ratio); higher = more splicing; Tetrahymena group I intron in knt gene, E. coli kanamycin selection, DiMSum; sequences stand for … in CUCUCU…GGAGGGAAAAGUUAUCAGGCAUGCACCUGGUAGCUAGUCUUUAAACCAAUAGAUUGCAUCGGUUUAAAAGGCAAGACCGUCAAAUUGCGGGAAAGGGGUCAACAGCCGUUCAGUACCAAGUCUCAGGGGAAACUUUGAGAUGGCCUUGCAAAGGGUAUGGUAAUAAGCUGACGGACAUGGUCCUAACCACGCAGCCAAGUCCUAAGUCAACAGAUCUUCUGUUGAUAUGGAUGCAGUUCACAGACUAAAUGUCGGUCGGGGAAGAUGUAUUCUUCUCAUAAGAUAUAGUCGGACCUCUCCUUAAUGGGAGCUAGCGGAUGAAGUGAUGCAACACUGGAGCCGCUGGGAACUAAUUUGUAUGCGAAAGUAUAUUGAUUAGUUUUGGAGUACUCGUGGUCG; conditions: 37 °C;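 note: selection with 25 µg/mL kanamycin versus none on LB agar overnight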
Everything with self-splicing fitness (ln) lower than -2 is Not satisfied; everything else, including exactly -2, is Satisfied.

SEQUENCE_INPUT	CAT
CGGCAGCAAUAUUACGGUAU	Not satisfied
CCCAAGCAAUAUUACGCAUG	Not satisfied
AGCUAGCAAUAUUACGAUAA	Satisfied
GCCUAGCAAUAUUACGAGUG	Satisfied
UUCAAGCAAUAUUACGAUUC	Not satisfied
UCUUAGCAAUAUUACGCGAA	Satisfied
CUUCAGCAAUAUUACGCCUC	Not satisfied
AACAAGCAAUAUUACGGUCU	Satisfied
AGGGAGCAAUAUUACGUUUU	Not satisfied
GGUUAGCAAUAUUACGAACG	Satisfied
CUCUAGCAAUAUUACGAGUC	Not satisfied
UCGGAGCAAUAUUACGUAGU	Satisfied
AGGAAGCAAUAUUACGACUG	Satisfied
UUCUAGCAAUAUUACGUCAA	Satisfied
UUUUAGCAAUAUUACGUCGG	Satisfied
CGCGAGCAAUAUUACGUGGG	Not satisfied
AGGCAGCAAUAUUACGUGCG	Satisfied
GUGAAGCAAUAUUACGGUUC	Satisfied
GAAUAGCAAUAUUACGUCAG	Not satisfied
ACUUAGCAAUAUUACGACCA	Satisfied
GUGCAGCAAUAUUACGCUCU	Satisfied
UCACAGCAAUAUUACGACCU	Satisfied
AACUAGCAAUAUUACGGAAU	Satisfied
GAUGAGCAAUAUUACGCUGU	Not satisfied
CAGAAGCAAUAUUACGCAUG	Not satisfied
UAUCAGCAAUAUUACGUUAA	Satisfied
GCGGAGCAAUAUUACGGUCU	Not satisfied
UUAGAGCAAUAUUACGCACU	Satisfied
ACGCAGCAAUAUUACGGACG	Satisfied
UAUUAGCAAUAUUACGAUGG	Satisfied
UCCCAGCAAUAUUACGGCCA	Satisfied
